B1: VH:VL chains; a variant is named by its letters at X, in order (parent)
chain 1: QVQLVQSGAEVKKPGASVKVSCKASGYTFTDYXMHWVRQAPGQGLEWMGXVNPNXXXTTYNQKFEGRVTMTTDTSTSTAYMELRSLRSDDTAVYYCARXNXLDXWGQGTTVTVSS
chain 2: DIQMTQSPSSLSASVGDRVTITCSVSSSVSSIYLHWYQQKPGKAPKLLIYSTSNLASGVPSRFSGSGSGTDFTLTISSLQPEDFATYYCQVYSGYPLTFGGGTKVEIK

# Variants of: B1
# test.summary: yeast display scFab, FACS + sequencing
test.readout: non-specific binding call

INSERT INTO results (mutation_name, test_readout, test_result) VALUES
  ('VAREGDLA', 'non-specific binding call', 'no binding'),
  ('YRAKSSSS', 'non-specific binding call', 'binds'),
  ('YRARGVGV', 'non-specific binding call', 'binds'),
  ('DTRGADAV', 'non-specific binding call', 'no binding'),
  ('FRRGGAGY', 'non-specific binding call', 'binds'),
  ('YRTGTAGF', 'non-specific binding call', 'binds'),
  ('YTGTSDAV', 'non-specific binding call', 'no binding'),
  ('SEEGSDAS', 'non-specific binding call', 'no binding'),
  ('YRRGGAVS', 'non-specific binding call', 'binds'),
  ('YRREGSLD', 'non-specific binding call', 'binds'),
  ('SKGKGSSA', 'non-specific binding call', 'binds'),
  ('YRGKGFVV', 'non-specific binding call', 'binds'),
  ('YRERDSAD', 'non-specific binding call', 'binds'),
  ('YRGRGYAY', 'non-specific binding call', 'binds'),
  ('VRAGAAGS', 'non-specific binding call', 'no binding'),
  ('YRAEGYVV', 'non-specific binding call', 'binds'),
  ('DTGGSASA', 'non-specific binding call', 'no binding'),
  ('STGGDDGA', 'non-specific binding call', 'no binding'),
  ('YRERNAAA', 'non-specific binding call', 'binds'),
  ('DKEGGSGV', 'non-specific binding call', 'no binding'),
  ('DKEGGDGY', 'non-specific binding call', 'no binding'),
  ('VKEKGDGS', 'non-specific binding call', 'no binding'),
  ('DKEGGSAD', 'non-specific binding call', 'no binding'),
  ('VRTRSSLD', 'non-specific binding call', 'binds'),
  ('DKEGGSSS', 'non-specific binding call', 'no binding'),
  ('YRRRGSAD', 'non-specific binding call', 'binds'),
  ('SEARSDWA', 'non-specific binding call', 'no binding'),
  ('YTGTSDLA', 'non-specific binding call', 'no binding'),
  ('DEGGTALA', 'non-specific binding call', 'no binding'),
  ('VKTGGDVA', 'non-specific binding call', 'no binding'),
  ('VRTGDSAY', 'non-specific binding call', 'no binding'),
  ('VAGTGDWD', 'non-specific binding call', 'no binding'),
  ('VEGGGSSA', 'non-specific binding call', 'no binding'),
  ('YTGEGDGV', 'non-specific binding call', 'no binding'),
  ('VAGGDAGV', 'non-specific binding call', 'no binding'),
  ('YRRGDDGD', 'non-specific binding call', 'binds'),
  ('AAEKDDLA', 'non-specific binding call', 'no binding'),
  ('DKTGDDGS', 'non-specific binding call', 'no binding'),
  ('FETGGYVY', 'non-specific binding call', 'no binding'),
  ('DKEGGSSA', 'non-specific binding call', 'no binding'),
  ('YRKEAAAA', 'non-specific binding call', 'binds'),
  ('DKEGGDAS', 'non-specific binding call', 'no binding'),
  ('FRAGGAWY', 'non-specific binding call', 'binds'),
  ('DTTGSSGV', 'non-specific binding call', 'no binding'),
  ('FAEGAAGD', 'non-specific binding call', 'no binding'),
  ('YRAGGVGS', 'non-specific binding call', 'binds'),
  ('SARKGDVA', 'non-specific binding call', 'no binding'),
  ('FRGTGSGD', 'non-specific binding call', 'binds'),
  ('YKRGSAVD', 'non-specific binding call', 'binds'),
  ('VRTEDSSV', 'non-specific binding call', 'no binding'),
  ('VRAGGDWV', 'non-specific binding call', 'no binding'),
  ('FAGGGASD', 'non-specific binding call', 'no binding'),
  ('YETTDSWV', 'non-specific binding call', 'no binding'),
  ('VEAGDAVA', 'non-specific binding call', 'no binding'),
  ('YRKGGAAV', 'non-specific binding call', 'binds'),
  ('YRGRGYWV', 'non-specific binding call', 'binds'),
  ('YKRGSSVS', 'non-specific binding call', 'binds'),
  ('VKRATSWD', 'non-specific binding call', 'binds'),
  ('YRRRGVGS', 'non-specific binding call', 'binds'),
  ('DRGRDDGS', 'non-specific binding call', 'no binding'),
  ('YRKRGDVV', 'non-specific binding call', 'binds'),
  ('ARGEGSGV', 'non-specific binding call', 'no binding'),
  ('DGGRGDVV', 'non-specific binding call', 'no binding'),
  ('SAREGALD', 'non-specific binding call', 'no binding'),
  ('DRAGDAAV', 'non-specific binding call', 'no binding'),
  ('YGRTSAAV', 'non-specific binding call', 'binds'),
  ('YRGGSDGS', 'non-specific binding call', 'no binding'),
  ('YKTKGSSY', 'non-specific binding call', 'binds'),
  ('VTTKSDVA', 'non-specific binding call', 'no binding'),
  ('VRRGSAGD', 'non-specific binding call', 'binds'),
  ('FKKGSYVF', 'non-specific binding call', 'binds'),
  ('YEGTGSLS', 'non-specific binding call', 'no binding'),
  ('FEAGDDGV', 'non-specific binding call', 'no binding'),
  ('VKGRSDVY', 'non-specific binding call', 'no binding'),
  ('ATATADWA', 'non-specific binding call', 'no binding'),
  ('YEERTAAA', 'non-specific binding call', 'binds'),
  ('YRGKGSWS', 'non-specific binding call', 'binds'),
  ('YRAGGASA', 'non-specific binding call', 'binds'),
  ('SEARSDVD', 'non-specific binding call', 'no binding'),
  ('YRAKGYGA', 'non-specific binding call', 'binds'),
  ('FRRRGDWY', 'non-specific binding call', 'binds'),
  ('DAKENAVY', 'non-specific binding call', 'no binding'),
  ('YRGRGYAA', 'non-specific binding call', 'binds'),
  ('FRKGGSLD', 'non-specific binding call', 'binds'),
  ('YRGRSSLY', 'non-specific binding call', 'binds'),
  ('DRAGDDLA', 'non-specific binding call', 'no binding'),
  ('FRTGDDWV', 'non-specific binding call', 'no binding'),
  ('YTTGGYLV', 'non-specific binding call', 'binds'),
  ('YRRRGSGF', 'non-specific binding call', 'binds'),
  ('SEEASAVY', 'non-specific binding call', 'no binding'),
  ('YKGRGALF', 'non-specific binding call', 'binds');
